These data points were gathered from paper PMC6383519.

- Tested on: HLA-A2 molecule on T2 cells
- Assay Details: T2-cell binding
- Design: species or system human
- Conditions: ranking among 5 potential MUC1-C agonist epitopes
// not satisfied strictly below 3 in T2-A2 binding (rank); satisfied otherwise

As a guide, the following entries are already answered.
{"Sequence Entry": "YLAIVYLIAL [Peptide C1A]", "Experimental System": "HLA-A2 molecule on T2 cells", "Answer Label": "satisfied"}
{"Sequence Entry": "YLSDVSVSDV [Peptide C8A]", "Experimental System": "HLA-A2 molecule on T2 cells", "Answer Label": "not satisfied"}
{"Sequence Entry": "YLLVLVCVLV [Peptide C9A]", "Experimental System": "HLA-A2 molecule on T2 cells", "Answer Label": "satisfied"}

Then there is this sequence:
Problem: Exam item: decide whether the reported T2-A2 binding (rank) for YLSYTNPAV [Peptide C3A] is at least 3.
Solution: not satisfied
